assay.explanation: NCI Yeast Anticancer Drug Screen. Data for the sgs1 mgt1 strain (AID 161);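 note: 0% = growth of cultures given vehicle only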
condition.label: S. cerevisiae sgs1 mgt1 strain, at 50.0 µM (retest, dose inferred, filed as 5.0)
The panel holds about 79,000 compounds, 15% with a hit somewhere; the sample as a whole holds those more often. Calls of active or inactive are those of the source. Cut-off read from the data, not from the text of the source: active = growth inhibition above about 70%; inactive = the rest.
Labels: label 1 = active, label 0 = inactive

>>> group_label("C[N+]1(C)CCC(c2ccccc2)(c2ccccc2)C(=O)C1")
"label 0"
>>> group_label("CS(=O)(=O)OC1CC(n2ccc(=O)[nH]c2=O)OC1COC(c1ccccc1)(c1ccccc1)c1ccccc1 (stereo unspecified)")
"label 0"
>>> group_label("COC(O)C(=O)c1c2c(cc3c1CCC3)CCCC2 (stereo unspecified)")
"label 1"
>>> group_label("COc1cc(OC)c(OC)cc1/C=C\\c1ccnc2ccccc12")
"label 1"
>>> group_label("Oc1ccc(/C=N/NC(=S)NN2CCOCC2)nc1")
"label 1"
>>> group_label("Cc1n(-c2ccccc2)c2c([n+]1Cc1ccc([N+](=O)[O-])cc1)C(=O)c1ccccc1C2=O")
"label 1"
>>> group_label("Nc1ccc2c(ccc3ccc4ccccc4c32)c1")
"label 1"
>>> group_label("O=C(/C=C/c1ccccn1)c1ccccc1")
"label 0"
>>> group_label("CCCCCCCCOC(=O)c1cc(O)c(O)c(O)c1")
"label 1"
>>> group_label("c1ccc(Cc2cc3ccccc3c3ccccc23)cc1")
"label 0"
>>> group_label("O=C1Nc2ccccc2C1(O)C/C(=N/O)c1ccc2ccccc2c1 (stereo unspecified)")
"label 0"

###

compounds and their reported growth inhibition
assay.explanation: NCI Yeast Anticancer Drug Screen. Data for the sgs1 mgt1 strain (AID 161);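 note: 0% = growth of cultures given vehicle only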
condition.label: S. cerevisiae sgs1 mgt1 strain, at 50.0 µM (retest, dose inferred, filed as 5.0), hits give high values
Description: Growth inhibition of yeast strains with defined genetic alterations is measured as a screen for potential anti-cancer activity. Selected strains with alterations in DNA damage repair or cell cycle control were exposed to compounds and growth inhibition was measured relative to vehicle treated controls. The strain used in this assay is sgs1 mgt1
The panel holds about 79,000 compounds, 15% with a hit somewhere; the sample as a whole holds those more often. Active and inactive are the calls of the source. Rule as the data show it: active = growth inhibition above about 70%; inactive = the rest.
measurement.label: growth inhibition

>>> recorded_value("O=C1C=C(c2c(O)ccc3ccccc23)c2ccccc2C1=O")
"98% (active)"
>>> recorded_value("CCCCCC(C)c1ccc(O)c(C)c1 (stereo not given)")
"43% (inactive)"
>>> recorded_value("O=S(=O)(O)c1ccc2cc(N=Nc3c(O)ccc4ccccc34)ccc2c1")
"72% (active)"
>>> recorded_value("Cn1c2nc3ccccc3c-2cc2ccccc21")
"83% (active)"
>>> recorded_value("CC[N+](CC)=c1ccc2nc3c(cc(N)c4ccccc43)oc-2c1")
"42% (inactive)"
>>> recorded_value("O=C(O)c1ccc(Nc2cnc3ccc(C(F)(F)F)cc3n2)cc1")
"13% (inactive)"
>>> recorded_value("Cc1c(N)nc(C(CC(N)=O)NCC(N)C(N)=O)nc1C(=O)NC(C(=O)NC(C)C(O)C(C)C(=O)NC(C(=O)NCCc1nc(-c2nc(C(=O)NCCCNCCCCN)cs2)cs1)C(C)O)C(OC1OC(CO)C(O)C(O)C1OC1OC(CO)C(O)C(OC(N)=O)C1O)c1cnc[nH]1 (stereo not given)")
"98% (active)"
>>> recorded_value("Cc1ccnc2c1c(=O)c1ccccc1n2C")
"35% (inactive)"
>>> recorded_value("CSc1ncnc2c1ncn2C1OC(CO)C(O)C1O (stereo not given)")
"1% (inactive)"
>>> recorded_value("CCOC(=O)Nc1c(C)cc(C)c(Br)c1C")
"12% (inactive)"
